# IC50 per entry
# test system: N-acyl-phosphatidylethanolamine-hydrolyzing phospholipase D (Homo sapiens, UniProt Q6IQ20)
# Sequence (Q6IQ20 whole entry): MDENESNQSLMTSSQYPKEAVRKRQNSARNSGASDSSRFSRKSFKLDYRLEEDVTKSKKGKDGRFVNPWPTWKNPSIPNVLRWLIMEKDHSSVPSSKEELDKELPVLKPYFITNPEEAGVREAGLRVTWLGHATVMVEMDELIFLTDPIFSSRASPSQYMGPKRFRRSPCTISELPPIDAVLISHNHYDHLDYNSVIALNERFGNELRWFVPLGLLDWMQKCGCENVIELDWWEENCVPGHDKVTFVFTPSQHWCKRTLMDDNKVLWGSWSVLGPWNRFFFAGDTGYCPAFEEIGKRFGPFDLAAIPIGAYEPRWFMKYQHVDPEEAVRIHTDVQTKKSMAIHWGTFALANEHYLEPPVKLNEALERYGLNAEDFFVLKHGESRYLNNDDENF
# method: Inhibition of full length human NAPE-PLD expressed in HEK293T cell lysate using PED6 as substrate preincubated for 30 mins followed by substrate addition and measured at 2 mins interval for 1 hr by tecan-plate reader analysis
# Type: subcellular
attribute measured: IC50 (µM)

> print(dat)
                                   molecule  attribute.measured  censor.symbol  experimental.result
1  CN(CCc1ccccc1)c1nc(C(=O)NCC2CC2)nc(N2CCOCC2)n1                IC50              >                 50.1
2  CN(CC1CC1)C(=O)c1cc(N2CCOCC2)nc(N(C)CCc2ccccc2)n1                IC50              >                 50.1
3  CCCCCCNC(=O)c1cc(N2CCOCC2)nc(N(C)CCc2ccccc2)n1                IC50              =                 34.7
4  CN(CCc1ccccc1)c1nc(C(=O)NCc2ccc(-c3ccccc3)cc2)cc(N2CCOCC2)n1                IC50              >                 50.1
5  CN(CCc1ccccc1)c1nc(C(=O)NCC#N)cc(N2CCOCC2)n1                IC50              =                 30.9
